- study.system: Cbl-b (Homo sapiens (Human), UniProt Q13191)
- Sequence (Q13191 40-426): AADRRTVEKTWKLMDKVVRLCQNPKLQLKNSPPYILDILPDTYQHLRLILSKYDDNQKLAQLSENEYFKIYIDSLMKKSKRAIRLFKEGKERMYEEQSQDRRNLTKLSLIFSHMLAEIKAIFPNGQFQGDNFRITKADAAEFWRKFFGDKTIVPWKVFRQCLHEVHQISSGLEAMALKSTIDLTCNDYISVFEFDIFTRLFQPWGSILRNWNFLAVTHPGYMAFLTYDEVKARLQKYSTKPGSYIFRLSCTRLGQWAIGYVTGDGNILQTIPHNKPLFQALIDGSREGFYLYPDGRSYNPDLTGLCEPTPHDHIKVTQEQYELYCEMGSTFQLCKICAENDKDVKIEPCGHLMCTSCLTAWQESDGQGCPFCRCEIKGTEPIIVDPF
- assay.info: Cbl-b LCK Ub TR-FRET assay (Cbl-b Lck HTRF)
- Type: biochemical
pIC50: −log10 of the molar value.
property.label: pIC50

Use the examples below as a reference point.
[
  {
    "compound": "CC[C@H]1CCC[C@@H](c2cc3c(c(C(F)(F)F)c2)CN(c2cccc(C4(Cc5nncn5C)CC(F)(F)C4)c2)C3=O)N1 (single isomer, unassigned) [Compound 273]",
    "study.system": "Cbl-b (Homo sapiens (Human), UniProt Q13191)",
    "obs.value": 7.29
  },
  {
    "compound": "CCn1cnnc1C(F)C1(c2cccc(N3Cc4c(cc(CN5CCN(C)C[C@@H]5C(C)C)cc4C(F)(F)F)C3=O)c2)CC(F)(F)C1 (stereo partly drawn) [Compound 485]",
    "study.system": "Cbl-b (Homo sapiens (Human), UniProt Q13191)",
    "obs.value": 7.51
  },
  {
    "compound": "CCCC1(O)CN(Cc2cc3c(c(C(F)(F)F)c2)CN(c2cccc(C4([C@H](F)c5nncn5C)COC4)c2)C3=O)C1 [Compound 172]",
    "study.system": "Cbl-b (Homo sapiens (Human), UniProt Q13191)",
    "obs.value": 6.74
  },
  {
    "compound": "Cn1cnnc1[C@@H](F)[C@@](C)(F)c1cccc(N2Cc3c(cc(CN4CC(C)(F)C4)cc3C(F)(F)F)C2=O)c1 [Compound 32]",
    "study.system": "Cbl-b (Homo sapiens (Human), UniProt Q13191)",
    "obs.value": 5.35
  }
]

[P] CN(CCC(C)(C)O)Cc1cc2c(c(C(F)(F)F)c1)CN(c1cccc(C3([C@@H](F)c4nncn4C)COC3)c1)C2=O [Compound 157]
[Q] Cn1cnnc1[C@H](F)C1(c2cccc(N3Cc4c(cccc4C(F)F)C3=O)c2)COC1 [Compound 59]
Prompt: Compare P and Q by numeric pIC50 and name the larger one. Mark your selection by writing its label.
Completion: P
(P: 7.14, Q: 6.23)
